# TARGET_ENTITY: PKA-N-HiBiT (Homo sapiens, UniProt P17612)
# PROCEDURE_DETAILS: SDR assay, PKA-N-HiBiT
# MEASUREMENT_SETUP: PKA-N-HiBiT qHTS, SDR assay; average maximal response
Criterion: SDR Ave Max Response strictly less than 2. Met: y. Not met: n.

Study these solved cases before continuing.
COMPOUND	CATEGORY_LABEL
N#Cc1ccc2ncnc(NCCc3ccccc3)c2c1	y
C=CC(=O)N1CCC[C@@H](n2nc(-c3cccc(C(=O)Nc4ccc(C(C)C)c(C)c4)c3)c3c(N)ncnc32)C1	n
N#Cc1cccc(-c2c[nH]c3ncnc(N4CCOCC4)c23)c1	n
Cc1nc(NC(=O)N2CCC[C@H]2C(N)=O)sc1-c1ccnc(C(C)(C)C(F)(F)F)c1	y
Cn1cc(-c2cc3c(N4CCN(c5ncc([C@@](C)(N)c6ccc(F)cc6)cn5)CC4)ncnn3c2)cn1	n
COc1ccc(-n2c(SCC#N)nc3sc4c(c3c2=O)CCCC4)cc1	y
CCn1nc(C2CCN(C(=O)CCO)CC2)nc1-c1cnc(N)c(-c2nnc(C(C)(C)C)o2)n1	n

Attention now turns to another entry.
Input: Does the reported SDR Ave Max Response of the following compound sit strictly below 2? Cc1sc2c(c1C)C(c1ccc(Cl)cc1)=N[C@@H](CC(=O)Nc1ccc(OCCOCCOCCOCCNc3cccc4c3C(=O)N(C3CCC(=O)NC3=O)C4=O)cc1)c1nnc(C)n1-2 (some centres unmarked)
Output: n
